- System: LOX IMVI
- ASSAY: NCI tumour cell line growth inhibition, 48 h
Activity calls are given as the source filed them. Cut-off read from the data, not from the text of the source: active = GI50 up to about 1.1 µM and inactive = higher.
# Lookup of reported GI50 keyed by entry

Examples from the recorded data:
{"MOLECULE": "C=CCN1C(=O)/C(=C/c2ccc(C)cc2)N=C1SC/C=C/C", "EXPERIMENTAL TARGET": "LOX IMVI", "RESULT": "19.6 µM (inactive)"}
{"MOLECULE": "CN(C)CCNC(=O)Cn1ccc(=O)c2c([N+](=O)[O-])cccc21", "EXPERIMENTAL TARGET": "LOX IMVI", "RESULT": "> 100 µM (inactive)"}
{"MOLECULE": "Nc1ccc(S(=O)(=O)c2ccc(NC(=O)c3cccnc3)cc2)cc1", "EXPERIMENTAL TARGET": "LOX IMVI", "RESULT": "> 100 µM (inactive)"}
{"MOLECULE": "C[N+]1(C)C[C@@H](O)C[C@@H]1C(=O)[O-]", "EXPERIMENTAL TARGET": "LOX IMVI", "RESULT": "> 100 µM (inactive)"}
{"MOLECULE": "c1ccc2cc(-c3cc(-c4cc(-c5ccc6ccccc6c5)on4)no3)ccc2c1", "EXPERIMENTAL TARGET": "LOX IMVI", "RESULT": "> 100 µM (inactive)"}
{"MOLECULE": "CC(=O)Nc1[nH]n(C)c(=O)c1-c1nnc(C)s1", "EXPERIMENTAL TARGET": "LOX IMVI", "RESULT": "> 100 µM (inactive)"}
{"MOLECULE": "Cc1cccc(-c2cc(=O)c3cc(C)c(C)c(C(=O)O)c3o2)c1", "EXPERIMENTAL TARGET": "LOX IMVI", "RESULT": "> 100 µM (inactive)"}
{"MOLECULE": "CCCN(CCC)C(=O)Cc1c2n(c3ccccc13)Cc1ccccc1-2", "EXPERIMENTAL TARGET": "LOX IMVI", "RESULT": "83.4 µM (inactive)"}
{"MOLECULE": "COc1cc(OC)nc(-n2c(N)c(C#N)c3ccc([N+](=O)[O-])cc3c2=O)n1", "EXPERIMENTAL TARGET": "LOX IMVI", "RESULT": "> 100 µM (inactive)"}
{"MOLECULE": "CC1(C)C2CCC(N)(C2)C1N (centres undefined)", "EXPERIMENTAL TARGET": "LOX IMVI", "RESULT": "> 100 µM (inactive)"}

Write down GI50 measured for item O=C1c2c(ccc3c2CCC3)CC12Cc1cc3c(cc1C2)CCC3 > 100 µM (inactive)

Consider the molecule C/C=N\N1C(=O)c2ccccc2C1=O . State its measured GI50. > 100 µM (inactive)

Quick one: give measured GI50 for Cc1ccc(N(Cc2ccccc2)Cc2ccccc2)cc1 34 µM (inactive)

Specify GI50 for S=P(C1CCCCC1)(C1CCCCC1)C(c1cccnc1)N1CCCC1 (centres undefined) and stop. 7.18 µM (inactive)

Supply reported GI50 belonging to this molecule: COC(=O)C1=C(C(=O)OC)SC(=C2SCSC3=C2SC(C(=O)OC)=C(C(=O)OC)C32SC3=C(CCCC3)S2)S1 > 100 µM (inactive)

* * *

- System: DLD-1
- ASSAY: NCI tumour cell line growth inhibition, 48 h
Activity calls are given as the source filed them. Cut-off read from the data, not from the text of the source: active = GI50 up to about 1.1 µM and inactive = higher.
# output must be one of true (active), false (inactive)

{"COMPOUND": "CC[C@@]1(O)C(=O)OCc2c1cc1n(c2=O)Cc2c-1nc1ccccc1c2Cl", "LABEL": "true"}
{"COMPOUND": "NC(=O)c1c[se]c(C2OC(CO)C(O)C2O)n1 (centres undefined)", "LABEL": "false"}

Query: recorded result category for NC(=S)N/N=C(/CCN1CCCC1)CC(C1=C(O)C2=CCCCC2OC1=O)c1ccccc1 (centres undefined) in this test false

Which outcome was entered for the compound CN(C)CCC1(C2=CCCC2)CC/C(=C\c2ccccc2Cl)C1=O (centres undefined) in this test? false

Tell me the assay call for Cc1nc2c(o1)C(=O)c1ccccc1/C2=N\c1ccccc1 please. false

For this compound, state the assay outcome: CN/C(=N/C#N)NCc1ccccc1 false

Entry O=C(CC(=O)c1ccc([N+](=O)[O-])cc1)C(=O)Nc1nccs1 : call = ? false

Identify the outcome logged in this assay for the compound shown: CN(C)CC1(C)CC/C(=C\c2ccc(Cl)cc2)C1=O (centres undefined) false

Kindly provide the recorded test outcome for the following compound: Cc1cc(N(CCC#N)CCC#N)ccc1/C(Sc1ccccc1)=C(\NC(=O)/C=C/c1ccccc1)C(=O)Sc1ccccc1 false

In this assay, the call recorded for CCCC/C(C)=N/NC(N)=S was what? false

* * *

- System: OVCAR-8
- ASSAY: NCI tumour cell line growth inhibition, 48 h
Calls of active or inactive are those of the source. No stated cut-off is given here; in the data, active = GI50 up to about 1.1 µM and inactive = higher.
Respond only with the outcome that fits, drawn from active, inactive

Some solved cases for reference:
{"MOLECULE": "Cc1cc(S(=O)(=O)Nc2nc(Nc3ccc4ccccc4c3)n[nH]2)c(S)cc1Cl", "LABEL": "inactive"}
{"MOLECULE": "CC(C)[Si](OC1=C(C(=O)N(C)c2cccc(Cl)c2)CCCC1)(C(C)C)C(C)C", "LABEL": "inactive"}
{"MOLECULE": "O=C(c1ccccc1)C1OC12C(=O)Nc1c(Cl)cc(Cl)cc12 (stereo unspecified)", "LABEL": "inactive"}

Recorded test call requested for O=S1(=O)OCCOS(=O)(=O)C1(F)Br inactive

Hi team, can someone confirm the assay call for CCOC(=O)n1c2ccccc2c2c(O)c(OC)c3c(c21)C(=O)NC3=O ? inactive

Lab log entry: O=[N+]([O-])c1ccc2nnnn2c1 — outcome as called in the assay? inactive

Which outcome was entered for the molecule Cn1cnc(N2CCCC2)c(C#N)c1=S in this test? inactive

So what was the verdict on COc1ccc(C2c3cc4c(c(OC)c3CC3OCC(=O)C32)OCO4)cc1OC (stereo unspecified) in this test? active

I'd appreciate the recorded outcome for CC1CN(C)c2ccccc2N=C1NN (stereo unspecified) from this test. inactive

GET /call?item= CN(C)CCCN1c2ccccc2CCc2ccc([N+](=O)[O-])cc21 returns the recorded outcome of this test. inactive

Which outcome did this test record for the molecule c1ccc(C/C(=N\Nc2nc3ccccc3o2)c2ccccn2)cc1 ? active

What was the test verdict on CC(CO)(CBr)COC(=O)c1cc(Br)c(N)c(Br)c1 (stereo unspecified) ? inactive

Dear colleague, could you share the recorded outcome for Cc1ccc(S(=O)(=O)Nc2cccc(C)c2C)cc1 when you have a moment? inactive

In this assay, the call recorded for NC(=O)c1c[se]c(C2OC(CO)C(O)C2O)n1 (stereo unspecified) was what? inactive

What call does the record list for CN(CCN(C)Cc1ccc(Cl)c(Cl)c1)CCN1CCCC1 ? inactive

* * *

- Test system: SF-539
- ASSAY: NCI tumour cell line growth inhibition, 48 h
Calls of active or inactive are those of the source. No stated cut-off is given here; in the data, active = GI50 up to about 1.1 µM and inactive = higher.
PROPERTY NAME: GI50

Reference set (4 entries):
{"COMPOUND": "Cc1cccc(/N=N/c2ccc(O)c(CN(C)C)c2)c1", "EXPERIMENTAL TARGET": "SF-539", "GI50": "18.2 µM (inactive)"}
{"COMPOUND": "S=C(N/N=C(/c1ccccc1)c1ccccn1)N1CCCCCC1", "EXPERIMENTAL TARGET": "SF-539", "GI50": "0.198 µM (active)"}
{"COMPOUND": "COc1ccc(C(=O)/C=C2\\Nc3cccnc3N\\C2=C/C(=O)c2ccc(OC)cc2)cc1", "EXPERIMENTAL TARGET": "SF-539", "GI50": "12.5 µM (inactive)"}
{"COMPOUND": "Cc1cccc(CC(Cc2c(C)cccc2C(=O)O)C(=O)O)c1 (stereo not given)", "EXPERIMENTAL TARGET": "SF-539", "GI50": "> 100 µM (inactive)"}

// below: GI50 requested for another compound
Provide one value: measured GI50 of CC[C@@]1(O)C(=O)OCc2c1cc1n(c2=O)Cc2c-1nc1ccccc1c2Cl < 0.01 µM (active)

* * *

- System: ACHN
- ASSAY: NCI tumour cell line growth inhibition, 48 h
The source made the active and inactive calls. Cut-off read from the data, not from the text of the source: active = GI50 up to about 1.1 µM and inactive = higher.
PROPERTY NAME: GI50

{"COMPOUND": "COc1ccc(/C=N/NC(=O)c2ccccc2Nc2ccccc2C(=O)N/N=C/c2ccc(OC)cc2)cc1", "EXPERIMENTAL TARGET": "ACHN", "GI50": "> 100 µM (inactive)"}
{"COMPOUND": "O=C(Cn1c(=O)oc2ccc(C(=O)c3ccccc3Cl)cc21)c1ccc([N+](=O)[O-])cc1", "EXPERIMENTAL TARGET": "ACHN", "GI50": "32.7 µM (inactive)"}

Identify measured GI50 corresponding to CCCN(CCC)C(=O)Cc1c2n(c3ccccc13)Cc1ccccc1-2 12 µM (inactive)
